- System: HL-60(TB) leukemia
- ASSAY_SUMMARY: NCI tumour cell line growth inhibition, 48 h; in the data active means GI50 below about 0.43 µM; inactive means the rest
Classes used: active, inactive

1) CN1CCN(c2cc(Nc3cc(C4CC4)[nH]n3)nc(Nc3ccc(CC(=O)NCc4cccc(F)c4)cc3)n2)CC1 ... inactive
2) CC(C)(C)n1cc(-c2ccnc(NCCNS(=O)(=O)c3cccc4ccccc34)c2)c(-c2cccc(F)c2)n1 ... inactive
3) O=C1C(=O)c2c(nc3ncccn23)-c2ccccc21 ... active
4) C=C1C(=O)O[C@H]2[C@H]1CC/C(COC(=O)C(=O)c1cn(C)c3ccc(OC)cc13)=C\CC[C@@]1(C)O[C@@H]21 ... inactive
5) C#CC#CC#CC#CC#CC#CC#CC#CCC1OC[C@H](COC(=O)O[C@@H](C(=O)O[C@H]2C[C@@]3(O)[C@@H](OC(=O)c4ccccc4)[C@@H]4[C@]5(OC(C)=O)CO[C@@H]5C[C@H](O)[C@@]4(C)C(=O)[C@H](OC(C)=O)C(=C2C)C3(C)C)[C@@H](NC(=O)c2ccccc2)c2ccccc2)O1 (stereo partly specified) ... active
6) Clc1ccc(Nc2nc3ccccc3c3occc23)cc1 ... inactive
7) COc1ccc(-c2c(C#N)c(N)nc3c2CCCc2ccc(F)cc2-3)cc1OC ... active
8) C[C@@]12CCC[C@@](C)(C(=O)O)C1CC[C@@]13CC(=O)[C@@](CO)(CCC12)C3 (stereo partly specified) ... inactive
9) Oc1ccc(-c2nc3ccc4[nH]ncc4c3c3c2CCCC3)c2cccnc12 ... inactive
10) CCCCC#Cc1cccc(=O)o1 ... inactive
11) COC(=O)c1cc2c(cc1Cl)SC(N(N(C)C)S(=O)(=O)c1ccc(Cl)cc1)=NS2(=O)=O ... inactive
12) COc1ccc2sc3c(NCCCNCCO)nc4ccccc4c3c(=O)c2c1 ... inactive
13) O=C(Nc1ccccc1F)c1ccc(NC2=C(Cl)C(=O)N(Cc3ccccc3)C2=O)cc1 ... inactive
14) Cc1ccc(-n2c(-c3ccc(Cl)cc3)cs/c2=N\NC(=O)COc2n[nH]c(=O)c3ccccc23)cc1 ... inactive
15) CC12CCC(O)CC1CCC1C2CCC2(C)C(C3=CC(=O)OC3)CCC12 (stereo unspecified) ... inactive
16) CCOC(=O)c1cnc2c(cnn2CC)c1NN=C(C)C ... inactive

====

- System: CCRF-CEM leukemia
- ASSAY_SUMMARY: NCI tumour cell line growth inhibition, 48 h
Peptide text beside a SMILES is read from it. * marks the point of attachment. OSu = O=C1CCC(=O)N1O*; OBn = c1ccc(CO*)cc1; Bn = c1ccc(C*)cc1
MEASUREMENT_NAME: TGI

1) C=C(C(=O)OC)[C@@H]1C[C@@H](O)[C@]2(C)CC/C=C(\C)CCC[C@H](C)[C@H](O)C1O2 ... 46 µM
2) COc1cc(/C=C/C(=O)c2cc(OC)c(OC)c(OC)c2)cc(OC)c1OC ... > 100 µM
3) CCC(C)CC(CC)NCCN1CCN(C(CC)CC(C)CC)C1=S (stereo unspecified) ... 4.98 µM
4) C#CC#CC#CC#CC#CC#CC#CC#CCC1OC[C@H](COC(=O)O[C@@H](C(=O)O[C@H]2C[C@@]3(O)[C@@H](OC(=O)c4ccccc4)[C@@H]4[C@]5(OC(C)=O)CO[C@@H]5C[C@H](O)[C@@]4(C)C(=O)[C@H](OC(C)=O)C(=C2C)C3(C)C)[C@@H](NC(=O)c2ccccc2)c2ccccc2)O1 (stereo partly specified) ... > 33.3 µM
5) CCCCc1nc2cc(/C=C/C(=O)NO)ccc2n1CCN(CC)CC ... > 100 µM
6) C=C1C(=O)O[C@H]2[C@H]1CC(=O)/C(C)=C\CC[C@@]1(C)O[C@@H]21 ... 1.4 µg/mL
7) Nc1c(O)c(S(=O)(=O)O)c(O)c2c1C(=O)c1ccccc1C2=O ... 11 µM
8) CCOC(=O)/C=C(/C(=O)OCC)n1ccc(=O)[nH]c1=O ... 3.99 µM
9) CC1=C(c2cc(C(=O)Nc3cccc(C(F)(F)F)c3)nc(NC#N)n2)Sc2ccccc2N1 ... > 100 µM
10) N#Cc1c(-c2ccccc2)cc(-c2ccccc2)n(C2OC(CO)C(O)C(O)C2O)c1=O (stereo unspecified) ... > 100 µM
11) CC1=CC(=O)/C(=C/N2CCNC2=S)C(=O)O1 ... > 100 µM
12) Cc1nn(C)c(=S)n(C)c1=O ... > 100 µM
13) CC(C)CC(NC(=O)C(N)CCC(=O)OCc1ccccc1)C(=O)NC(COCc1ccccc1)C(=O)NC(Cc1ccccc1)C(=O)ON1C(=O)CCC1=O (stereo unspecified) (H-E(OBn)LS(Bn)F-OSu; configuration not given here) ... 82.1 µM
14) CC(C)C(/C=C/c1ccccc1)=N\NC(=S)NN ... > 89.9 µM
15) O=c1cc2cc(O)[nH]c(=O)c2c(O)[nH]1 ... > 100 µM
16) O=[N+]([O-])c1ccc2c(c1)S(=O)c1ccccc1-2 (stereo unspecified) ... > 100 µM
17) CCOC(=O)c1ccc(NC(NC(=O)CC)(C(F)(F)F)C(F)(F)F)cc1 ... > 100 µM
18) O=[N+]([O-])c1ccc(Cl)cc1N/N=C/c1cccs1 ... > 100 µM
19) O=C1CCC2CCOc3ccc(O)c1c32 (stereo unspecified) ... > 100 µM
20) O=C(CC(=O)Nc1ccccc1Cl)NNC(Sc1ccccc1)c1cc(N=Nc2ccc(Br)cc2)ccc1O (stereo unspecified) ... 6.21 µM
21) Nc1ccc(-c2nc3cc(F)ccc3s2)cc1 ... > 100 µM
22) O=C1CC(c2c[nH]c3ccccc23)C(=O)N1c1ccccc1 (stereo unspecified) ... > 100 µM
23) C=CCC(C)(C(=O)NCCC)C(=O)c1ccccc1O (stereo unspecified) ... > 100 µM
24) CN(/N=C/c1ccc(Cl)c(Cl)c1)C1=NCCN1 ... > 100 µM
25) COc1ccc(-c2c(C#N)c(N)nc3c2CCCc2ccc(F)cc2-3)cc1OC ... > 92.8 µM
26) S=C1CSc2c(cnc3ccccc23)N1 ... > 100 µM
